- targetOfAssay: Cyclin-dependent kinase 4/cyclin D1 (Homo sapiens, UniProt P11802)
- Sequence (P11802 whole entry): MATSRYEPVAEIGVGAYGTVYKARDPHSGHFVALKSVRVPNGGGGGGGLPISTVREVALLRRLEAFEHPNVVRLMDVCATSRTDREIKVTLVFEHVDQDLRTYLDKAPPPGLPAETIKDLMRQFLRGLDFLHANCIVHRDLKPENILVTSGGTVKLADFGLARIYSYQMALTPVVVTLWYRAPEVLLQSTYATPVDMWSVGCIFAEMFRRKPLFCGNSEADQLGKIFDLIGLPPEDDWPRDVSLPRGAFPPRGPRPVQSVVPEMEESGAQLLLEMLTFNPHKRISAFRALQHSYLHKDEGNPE
- Sequence (P24385 whole entry, further chain): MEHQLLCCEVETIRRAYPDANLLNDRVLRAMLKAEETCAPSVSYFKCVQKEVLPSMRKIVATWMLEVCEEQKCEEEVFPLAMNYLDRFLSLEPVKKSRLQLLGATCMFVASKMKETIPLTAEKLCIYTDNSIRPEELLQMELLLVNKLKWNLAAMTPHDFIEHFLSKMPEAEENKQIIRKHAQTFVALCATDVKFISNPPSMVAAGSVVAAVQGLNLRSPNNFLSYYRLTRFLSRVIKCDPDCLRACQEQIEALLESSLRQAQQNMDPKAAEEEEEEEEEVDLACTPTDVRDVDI
- experimentDescription: Inhibition of human CDK4/Cyclin D1 assessed as substrate phosphorylation at ser780 using GST tagged retinoblastoma as substrate in presence of gamma32P-ATP by scintillation counter analysis
- Type: protein-complex assay
measurementLabel: IC50 (nM)
# unit: nM | format: bare number

Would you mind telling me what IC50 value was observed for CN1CCC(c2c(O)cc(O)c3c(=O)cc(-c4ccccc4Cl)oc23)C1CO (stereo unspecified) ?
63

----------
- targetOfAssay: Cyclin-dependent kinase 2/cyclin A (Homo sapiens, UniProt P24941)
- experimentDescription: Inhibition of human CDK2/Cyclin A in presence of gamma32P-ATP by scintillation counter analysis
- Format: protein-complex assay
measurementLabel: IC50 (nM)
Respond with the bare value in nM.

API: value(readout= IC50, system= Cyclin-dependent kinase 2/cyclin A (Homo sapiens, UniProt P24941), query= CN1CCC(c2c(O)cc(O)c3c(=O)cc(-c4ccccc4Cl)oc23)C1CO (stereo unspecified) [RIVICICLIB] )
224

----------
- targetOfAssay: Cyclin-dependent kinase 16 (Homo sapiens)
- Sequence (Q00536 whole entry): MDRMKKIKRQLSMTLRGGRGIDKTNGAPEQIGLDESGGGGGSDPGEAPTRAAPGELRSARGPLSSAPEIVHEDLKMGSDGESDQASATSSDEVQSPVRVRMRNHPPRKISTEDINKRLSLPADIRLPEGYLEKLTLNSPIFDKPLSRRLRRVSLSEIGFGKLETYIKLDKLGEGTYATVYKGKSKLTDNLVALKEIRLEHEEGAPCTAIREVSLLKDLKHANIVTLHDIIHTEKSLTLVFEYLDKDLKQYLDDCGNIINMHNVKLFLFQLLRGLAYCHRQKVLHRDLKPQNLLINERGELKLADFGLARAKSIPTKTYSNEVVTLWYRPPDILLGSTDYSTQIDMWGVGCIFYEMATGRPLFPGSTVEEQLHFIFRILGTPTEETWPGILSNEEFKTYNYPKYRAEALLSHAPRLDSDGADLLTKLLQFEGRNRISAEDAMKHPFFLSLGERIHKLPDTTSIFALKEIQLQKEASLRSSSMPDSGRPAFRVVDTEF
- experimentDescription: Inhibition of CDK16 (unknown origin) by Kinomescan method
measurementLabel: IC50 (nM)
Report only the number, with the unit nM understood.

Report IC50 for COC[C@@H](C)N[C@H]1CC[C@H](Nc2cc(-c3cccc(NCC4(C#N)CCOCC4)n3)c(Cl)cn2)CC1 please.
605

----------
- targetOfAssay: CDK8/Cyclin C (Homo sapiens, UniProt P49336)
- Sequence (P49336 whole entry): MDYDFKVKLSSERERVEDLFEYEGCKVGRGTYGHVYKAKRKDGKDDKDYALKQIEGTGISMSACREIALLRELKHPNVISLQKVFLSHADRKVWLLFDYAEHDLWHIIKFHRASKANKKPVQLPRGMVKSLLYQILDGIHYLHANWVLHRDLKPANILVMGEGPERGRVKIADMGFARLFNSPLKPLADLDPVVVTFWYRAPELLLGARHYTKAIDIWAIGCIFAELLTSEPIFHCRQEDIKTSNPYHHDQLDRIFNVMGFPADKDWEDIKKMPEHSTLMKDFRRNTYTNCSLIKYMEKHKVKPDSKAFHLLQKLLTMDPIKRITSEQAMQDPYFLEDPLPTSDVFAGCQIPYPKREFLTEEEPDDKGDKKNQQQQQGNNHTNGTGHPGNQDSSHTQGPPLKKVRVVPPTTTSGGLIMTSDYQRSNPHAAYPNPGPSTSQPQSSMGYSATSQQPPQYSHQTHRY
- Sequence (P24863 whole entry, further chain): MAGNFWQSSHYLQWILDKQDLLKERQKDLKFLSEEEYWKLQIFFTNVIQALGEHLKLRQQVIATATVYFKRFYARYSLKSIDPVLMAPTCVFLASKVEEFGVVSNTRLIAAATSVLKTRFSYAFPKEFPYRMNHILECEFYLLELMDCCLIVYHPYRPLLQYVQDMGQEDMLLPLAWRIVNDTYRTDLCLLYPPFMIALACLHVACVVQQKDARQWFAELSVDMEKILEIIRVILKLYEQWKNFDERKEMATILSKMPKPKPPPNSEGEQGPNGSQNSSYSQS
- experimentDescription: Inhibition of CDK8/Cyclin C (unknown origin) by LanthaScreen binding assay
measurementLabel: pIC50
Would you please state pIC50, meaning minus log10 of the concentration in mol/L, as a bare number?

Value lookup for pIC50; key = CC(C)c1ccc(Nc2nccc(-c3cnn4ncccc34)n2)cc1 [GW805758X]
8.96

----------
- targetOfAssay: Cyclin-dependent kinase 2 (Homo sapiens, UniProt P24941)
- experimentDescription: Inhibition of CDK2 (unknown origin) incubated for 120 mins in presence of ATP by HotSpot kinase assay
measurementLabel: IC50 (µM)
Field format: number, assumed µM, no unit text.

GET /values?readout=IC50&system=Cyclin-dependent kinase 2 (Homo sapiens, UniProt P24941)&item= CCCc1cc(N[C@@H]2CC[C@@H](N)C2)n2nccc2n1
18.2

----------
- targetOfAssay: Cyclin-dependent kinase 5/CDK5 activator 1 (Homo sapiens, UniProt Q00535)
- Sequence (Q00535 whole entry): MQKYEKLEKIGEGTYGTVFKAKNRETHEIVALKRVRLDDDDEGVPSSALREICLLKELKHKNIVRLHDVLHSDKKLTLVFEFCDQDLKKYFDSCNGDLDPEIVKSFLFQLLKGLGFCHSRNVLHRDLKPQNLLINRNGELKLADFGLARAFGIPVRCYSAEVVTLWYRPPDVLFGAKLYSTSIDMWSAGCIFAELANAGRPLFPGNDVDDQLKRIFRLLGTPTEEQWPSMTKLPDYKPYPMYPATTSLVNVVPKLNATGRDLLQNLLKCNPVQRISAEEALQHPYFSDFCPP
- Sequence (Q15078 whole entry, further chain): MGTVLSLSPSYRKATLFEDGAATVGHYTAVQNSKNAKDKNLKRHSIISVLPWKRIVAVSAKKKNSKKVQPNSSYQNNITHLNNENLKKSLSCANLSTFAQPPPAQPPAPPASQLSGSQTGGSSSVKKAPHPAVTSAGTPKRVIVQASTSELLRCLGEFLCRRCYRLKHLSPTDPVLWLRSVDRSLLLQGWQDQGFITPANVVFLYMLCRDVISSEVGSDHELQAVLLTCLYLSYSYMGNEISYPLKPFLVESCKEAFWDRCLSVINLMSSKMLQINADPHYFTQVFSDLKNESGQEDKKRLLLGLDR
- experimentDescription: Inhibition of CDK5/p35 (unknown origin)
measurementLabel: IC50 (nM)
Please state the figure in nM; there is no need to write the unit.

compound	IC50 / nM
COCCN1CCN(Cc2ccc(-c3n[nH]c4c3C(=O)c3c(NC(=O)NN5CCOCC5)cccc3-4)cc2)CC1	5

Next:
# value lookup — system Cyclin-dependent kinase 5/CDK5 activator 1 (Homo sapiens, UniProt Q00535), readout IC50, item Nc1nc(N[C@H]2CC3CCC2C3)sc1C(=O)c1ccccc1[N+](=O)[O-] (some centres not stated)
159

----------
- targetOfAssay: Cyclin-dependent kinase 1/cyclin B (Homo sapiens)
- experimentDescription: Inhibition of human CDK1/Cyclin B in presence of gamma32P-ATP by scintillation counter analysis
- Assay type: protein-complex assay
measurementLabel: pIC50
# pIC50: negative log10 of molar concentration; output just the value

What does the data say about its pIC50? Entry: CN1CCC(c2c(O)cc(O)c3c(=O)cc(-c4ccccc4Cl)oc23)C1CO (stereo unspecified) [RIVICICLIB]
7.10
